# MEASURED ON: Urokinase-type plasminogen activator (Homo sapiens, UniProt P00749)
pIC50: −log10 of the molar value.
Returns TRUE if the recorded pIC50 is greater than or equal to 5, and FALSE otherwise.

{"CPD SMILES": "N=C(N)NC(=O)c1nc(Cl)c(NCCSCc2ccccc2)nc1N", "LABEL": "FALSE"}
{"CPD SMILES": "N=C(N)NC(=O)c1nc(Cl)c(NCc2ccccn2)nc1N", "LABEL": "FALSE"}
{"CPD SMILES": "COC(=O)CNc1nc(N)c(C(=O)NC(=N)N)nc1Cl", "LABEL": "FALSE"}
{"CPD SMILES": "N=C(N)NC(=O)c1cccnc1", "LABEL": "FALSE"}
{"CPD SMILES": "N=C(N)NC(=O)c1nc(Cl)c(NCc2nnn[nH]2)nc1N", "LABEL": "FALSE"}
{"CPD SMILES": "N=C(N)NC(=O)c1nc(Cl)c(NCCc2nnn[nH]2)nc1N", "LABEL": "FALSE"}
{"CPD SMILES": "N=C(N)NC(=O)c1nc(Cl)c(NCc2ccncc2)nc1N", "LABEL": "TRUE"}
{"CPD SMILES": "N=C(N)NC(=O)c1nc(Cl)c(NCc2ccc(F)cc2)nc1N", "LABEL": "TRUE"}
{"CPD SMILES": "NNC(=O)c1nc(Cl)c(N)nc1N", "LABEL": "FALSE"}
{"CPD SMILES": "Nc1noc(-c2nc(Cl)c(N)nc2N)n1", "LABEL": "FALSE"}
{"CPD SMILES": "CCN(c1nc(N)c(C(=O)NC(=N)N)nc1Cl)C(C)C", "LABEL": "TRUE"}
